assay-system: matriptase (Homo sapiens)
Construct: Charles Craik, UCSF (obtained from another laboratory)
Sequence (Q9Y5Y6 615-855 limits assumed): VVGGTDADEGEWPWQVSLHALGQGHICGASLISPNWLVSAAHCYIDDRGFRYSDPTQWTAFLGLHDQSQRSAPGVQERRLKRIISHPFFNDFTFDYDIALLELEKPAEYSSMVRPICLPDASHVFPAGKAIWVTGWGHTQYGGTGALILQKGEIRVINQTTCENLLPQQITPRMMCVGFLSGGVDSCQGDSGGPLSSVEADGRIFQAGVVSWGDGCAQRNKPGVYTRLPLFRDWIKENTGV
method: Fluorescent kinetic enzyme inhibitor assay of matriptase
Format: biochemical
condition-label: Table 4.2; Boc-QAR-AMC substrate
pKi: −log10 of the molar value.
measurement-name: pKi

| compound | measurement-name | recorded-result |
| --- | --- | --- |
| CC(=O)N[C@@H](CCCCN)C(=O)N[C@@H](CCC(N)=O)C(=O)N[C@@H](CC(C)C)C(=O)N[C@@H](CCCNC(=N)N)C(=O)c1nccs1 [Compound 5, Ac-KQLR(SEQ ID NO: 1)-kt] | pKi | 8.80 |
| CC(=O)N[C@@H](CCCCN)C(=O)N[C@@H](Cc1ccccc1)C(=O)N[C@@H](CC(C)C)C(=O)N[C@@H](CCCNC(=N)N)C(=O)c1nccs1 [Compound 5d, Ac-KFLR(SEQ ID NO: 5)-kt] | pKi | 7.82 |
| CC(=O)N[C@@H](CCCCN)C(=O)N[C@@H](CCC(N)=O)C(=O)N[C@@H](Cc1ccccc1)C(=O)N[C@@H](CCCNC(=N)N)C(=O)c1nccs1 [Compound 5c, Ac-KQFR(SEQ ID NO: 4)-kt] | pKi | 9.16 |

Where do these numbers come from? They come from patent US11130780B2.
